// data source = paper PMC6923382

assay: Blood exposure of UCB-9260 in the mouse models; assay type: in vivo; conditions: Balb/c, mouse, blood, oral, 10 mg/kg; mouse TNF neutrophilia model; individual mice; 0.5h post dose; read-out: Total exposure
Reported Metric: concentration at 0.5 h (nM)

# Compound, Reported Metric, Measurement
data = [
    ("Cc1ccc(C)c(Cn2c(C(O)c3ccncc3)nc3ccc(-c4cnn(C)c4)cc32)c1 (stereo not shown)", "concentration at 0.5 h", 1220),
]

* * *

assay: Blood exposure of UCB-9260 in the mouse models; type: in vivo; conditions: Balb/c, mouse, blood, oral, 300 mg/kg, 300 mg/kg p.o.; human TNF neutrophilia model; mean n=3 ± s.e.m.; read-out: Blood concentration 0.5h post dose total
Reported Metric: concentration at 0.5 h (µM)

# Compound, Reported Metric, Measurement
records = [
    ("Cc1ccc(C)c(Cn2c(C(O)c3ccncc3)nc3ccc(-c4cnn(C)c4)cc32)c1 (stereo not shown)", "concentration at 0.5 h", 49.5),
]

* * *

assay: Blood exposure of UCB-9260 in the mouse models; format: in vivo; conditions: Balb/c, mouse, blood, oral, 30 mg/kg, 30 mg/kg p.o.; mouse TNF neutrophilia model; Fu 2.4%; read-out: Blood concentration 0.5h post dose (free)

# Molecule, concentration at 0.5 h, nM
rows = [
    ("Cc1ccc(C)c(Cn2c(C(O)c3ccncc3)nc3ccc(-c4cnn(C)c4)cc32)c1 (stereo not shown)", 225),
]

* * *

experiment: Blood exposure of UCB-9260 in the mouse models; format: in vivo; conditions: Balb/c, mouse, blood, oral, 300 mg/kg, 300 mg/kg p.o.; mouse TNF neutrophilia model; Fu 2.4%; read-out: Blood concentration 0.5h post dose (free)

# Compound, concentration at 0.5 h, nM
rows = [
    ("Cc1ccc(C)c(Cn2c(C(O)c3ccncc3)nc3ccc(-c4cnn(C)c4)cc32)c1 (stereo not shown)", 1270),
]

* * *

Molecular target: mouse TNF (Mus musculus)
Construct: stabilise an asymmetrical form of the soluble TNF trimer
Sequence (P06804 80-235 limits assumed): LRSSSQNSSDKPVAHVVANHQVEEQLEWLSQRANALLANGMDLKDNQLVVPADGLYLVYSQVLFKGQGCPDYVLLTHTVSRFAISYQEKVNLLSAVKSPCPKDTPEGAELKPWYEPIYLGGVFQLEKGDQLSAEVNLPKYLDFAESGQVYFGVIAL
Test: TNF L929 cytotoxicity assay, mouse TNF
Format: cell-based
Details: mouse TNF; mouse L929 cells + actinomycin D; read-out: geometric mean IC50, TNF-dependent cytotoxicity

# Compound, Units Text, IC50
data = [
    ("Cc1ccc(C)c(Cn2c(C(O)c3ccncc3)nc3ccc(-c4cnn(C)c4)cc32)c1 (stereo not shown) [UCB-9260]", "nM", 120),
]

* * *

test: Blood exposure of UCB-9260 in the mouse models; format: in vivo; conditions: Balb/c, mouse, blood, oral, 30 mg/kg, 30 mg/kg p.o.; mouse TNF neutrophilia model; mean n=3 ± s.e.m.; read-out: Blood concentration 0.5h post dose total

# Compound, Units Text, concentration at 0.5 h
records = [
    ("Cc1ccc(C)c(Cn2c(C(O)c3ccncc3)nc3ccc(-c4cnn(C)c4)cc32)c1 (stereo not shown) [UCB-9260]", "µM", 9.36),
]

* * *

assay: Blood exposure of UCB-9260 in the mouse models; assay type: in vivo; details: Balb/c, mouse, blood, oral, 100 mg/kg, 100 mg/kg p.o.; mouse TNF neutrophilia model; mean ± s.e.m.; read-out: Blood concentration 0.5h post dose total

# Compound, concentration at 0.5 h [µM]
records = [
    ("Cc1ccc(C)c(Cn2c(C(O)c3ccncc3)nc3ccc(-c4cnn(C)c4)cc32)c1 (stereo not shown)", 56.1),
]

* * *

assay: Blood exposure of UCB-9260 in the mouse models; assay type: in vivo; conditions: Balb/c, mouse, blood, oral, 300 mg/kg, 300 mg/kg p.o.; mouse TNF neutrophilia model; mean n=3 ± s.e.m.; read-out: Blood concentration 0.5h post dose total

# Compound, concentration at 0.5 h (µM)
records = [
    ("Cc1ccc(C)c(Cn2c(C(O)c3ccncc3)nc3ccc(-c4cnn(C)c4)cc32)c1 (stereo not shown)", 53),
]

* * *

assay: Blood exposure of UCB-9260 in the mouse models; format: in vivo; conditions: male, Balb/c, mouse, blood, oral, 10 mg/kg, 10 mg/kg p.o.; zymosan model; mean n=8 ± s.e.m.; read-out: Blood concentration 1h post dose (total)
Reported Metric: concentration at 1 h (nM)

# Compound, Measurement
data = [
    ("Cc1ccc(C)c(Cn2c(C(O)c3ccncc3)nc3ccc(-c4cnn(C)c4)cc32)c1 (stereo not shown)", 86),
]

* * *

experiment: Blood exposure of UCB-9260 in the mouse models; assay type: in vivo; details: mouse, blood, 150 mg/kg, 150 mg/kg B.I.D.; CAIA model; read-out: Blood concentration (free), 1h post dose

# Compound, Units Text, concentration at 1 h
measured = [
    ("Cc1ccc(C)c(Cn2c(C(O)c3ccncc3)nc3ccc(-c4cnn(C)c4)cc32)c1 (stereo not shown)", "nM", 415),
]

* * *

assay: Blood exposure of UCB-9260 in the mouse models; assay type: in vivo; conditions: mouse, blood, oral, 30 mg/kg, 30 mg/kg p.o.; human TNF neutrophilia model; Fu 2.4%; read-out: Blood concentration 0.5h post dose (free)

# Compound, concentration at 0.5 h
rows = [
    ("Cc1ccc(C)c(Cn2c(C(O)c3ccncc3)nc3ccc(-c4cnn(C)c4)cc32)c1 (stereo not shown)", "203 nM"),
]

* * *

experiment: Blood exposure of UCB-9260 in the mouse models; type: in vivo; settings: mouse, blood, 150 mg/kg, 150 mg/kg B.I.D.; CAIA model; mean ± s.e.m.; read-out: Blood concentration total, 1h post dose

# Molecule, concentration at 1 h
rows = [
    ("Cc1ccc(C)c(Cn2c(C(O)c3ccncc3)nc3ccc(-c4cnn(C)c4)cc32)c1 (stereo not shown)", "17.3 µM"),
]

* * *

assay: Blood exposure of UCB-9260 in the mouse models; assay type: in vivo; details: Balb/c, mouse, blood, oral, 100 mg/kg; human TNF neutrophilia model; individual mice; 0.5h post dose; read-out: Total exposure

# Compound, concentration at 0.5 h / µM
rows = [
    ("Cc1ccc(C)c(Cn2c(C(O)c3ccncc3)nc3ccc(-c4cnn(C)c4)cc32)c1 (stereo not shown) [UCB-9260]", 29.1),
]

* * *

test: Blood exposure of UCB-9260 in the mouse models; format: in vivo; settings: Balb/c, mouse, blood, oral, 30 mg/kg; mouse TNF neutrophilia model; individual mice; 0.5h post dose; read-out: Total exposure

# Compound, concentration at 0.5 h (µM)
rows = [
    ("Cc1ccc(C)c(Cn2c(C(O)c3ccncc3)nc3ccc(-c4cnn(C)c4)cc32)c1 (stereo not shown)", 9.98),
]

* * *

assay: Blood exposure of UCB-9260 in the mouse models; assay type: in vivo; conditions: Balb/c, mouse, blood, oral, 10 mg/kg, 10 mg/kg p.o.; mouse TNF neutrophilia model; mean n=3 ± s.e.m.; read-out: Blood concentration 0.5h post dose total
Reported Metric: concentration at 0.5 h (nM)

# Molecule, Reported Metric, Measurement
measured = [
    ("Cc1ccc(C)c(Cn2c(C(O)c3ccncc3)nc3ccc(-c4cnn(C)c4)cc32)c1 (stereo not shown) [UCB-9260]", "concentration at 0.5 h", 1320),
]

* * *

assay: Blood exposure of UCB-9260 in the mouse models; format: in vivo; conditions: Balb/c, mouse, blood, oral, 300 mg/kg; human TNF neutrophilia model; individual mice; 0.5h post dose; read-out: Total exposure

# Molecule, concentration at 0.5 h / µM
rows = [
    ("Cc1ccc(C)c(Cn2c(C(O)c3ccncc3)nc3ccc(-c4cnn(C)c4)cc32)c1 (stereo not shown) [UCB-9260]", 41.5),
]

* * *

target: TNF (Homo sapiens, UniProt P01375); assay: Biacore kinetics of binding; set-up: Human TNF (CID2043, UniProt P01375 residues 77–233); 6XHis-Smt3 (N, cleaved yes); host or cells: E. coli TOP10; details: SPR, multicycle, Biacore T100; read-out: KD (kd/ka)
Sequence (P01375 77-233): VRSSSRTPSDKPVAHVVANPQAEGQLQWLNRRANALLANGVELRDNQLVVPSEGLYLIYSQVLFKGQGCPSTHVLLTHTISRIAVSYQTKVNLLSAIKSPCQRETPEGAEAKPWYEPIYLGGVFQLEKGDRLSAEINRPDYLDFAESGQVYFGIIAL

# Cpd Smiles, Kd / µM
data = [
    ("Cc1ccc(C)c(Cn2c(CO)nc3ccccc32)c1", 22),
]

* * *

assay: Blood exposure of UCB-9260 in the mouse models; format: in vivo; conditions: male, Balb/c, mouse, blood, oral, 100 mg/kg, 100 mg/kg p.o.; zymosan model; Fu 2.4%; read-out: Blood concentration 1h post dose (free)
Reported Metric: concentration at 1 h (µM)

# Molecule, Measurement
records = [
    ("Cc1ccc(C)c(Cn2c(C(O)c3ccncc3)nc3ccc(-c4cnn(C)c4)cc32)c1 (stereo not shown)", 0.63),
]

* * *

assay: Blood exposure of UCB-9260 in the mouse models; type: in vivo; conditions: Balb/c, mouse, blood, oral, 100 mg/kg; human TNF neutrophilia model; individual mice; read-out: Free exposure
Reported Metric: concentration at 0.5 h (nM)

# Compound, Measurement
data = [
    ("Cc1ccc(C)c(Cn2c(C(O)c3ccncc3)nc3ccc(-c4cnn(C)c4)cc32)c1 (stereo not shown)", 886),
]
